Test system: E. coli S30 extract (bacterial protein synthesis)
Assay: E. coli S30 extract coupled transcription-translation luciferase assay (inhibition of bacterial protein synthesis)
Format: biochemical
Details: % inhibition @ 1 μM, read-out: S30 IC50 (μM/% inhib.)
endpoint-name: IC50

Supply recorded IC50 for CNCC(=O)N1CCN(C(=O)Nc2ccn(-c3ccc(CC(C)N4C[C@@H]5[C@@H](CN)[C@@H]5C4)cc3)c(=O)n2)CC1 (stereo partly shown) [Compound 236] here.
≥ 1 µM

Supply recorded IC50 for CC(Cc1ccc(-n2ccc(NC(=O)N3CCN(C(=O)C(C)(C)N)CC3)nc2=O)cc1)N1CCC2(CC(N)C2)C1 (stereo not shown) [Compound 225] here.
0.5 to 1 µM

Supply recorded IC50 for CC(Cc1ccc(-n2ccc(NC(=O)N3CCN(C(=O)C[C@H](C)N)CC3)nc2=O)cc1)N1C[C@@H]2[C@@H](CN)[C@@H]2C1 (stereo partly shown) [Compound 231] here.
≥ 1 µM

Supply recorded IC50 for CC(C)(N)C(=O)N1CCN(C(=O)Nc2ccn(-c3ccc(C[C@H](N)C(=O)N4C[C@@H]5[C@@H](CN)[C@@H]5C4)cc3)c(=O)n2)CC1 [Compound 182] here.
≥ 1 µM

Supply recorded IC50 for CC(C)(N)C(=O)N1CCN(C(=O)Nc2ccn(-c3ccc(CCCN4CC5CC5(CN)C4)cc3)c(=O)n2)CC1 (stereo not shown) [Compound 184] here.
≥ 1 µM

Supply recorded IC50 for CC(Cc1ccc(-n2ccc(NC(=O)N3CCN(C(=O)C(C)(C)N)CC3)nc2=O)cc1)NC12CC(N)(C1)C2 (stereo not shown) [Compound 202] here.
≥ 1 µM

Supply recorded IC50 for CC(C)(N)C(=O)N1CCN(C(=O)Nc2ccn(-c3ccc(C[C@H](N)C(=O)N4CC5CC5(CN)C4)cc3)c(=O)n2)CC1 (stereo partly shown) [Compound 183] here.
≥ 1 µM

Supply recorded IC50 for CC(Cc1ccc(-n2ccc(NC(=O)N3CCN(C(=O)C4(N)CC4)CC3)nc2=O)cc1)N1C[C@@H]2[C@@H](CN)[C@@H]2C1 (stereo partly shown) [Compound 226] here.
≥ 1 µM

Supply recorded IC50 for CC(COc1ccc(-n2ccc(NC(=O)N3CCN(C(=O)C(C)(C)N)CC3)nc2=O)cc1)N1CC2CC2(CN)C1 (stereo not shown) [Compound 189] here.
< 0.5 µM

Supply recorded IC50 for CCN(C(C)Cc1ccc(-n2ccc(NC(=O)N3CCN(C(=O)C(C)(C)N)CC3)nc2=O)cc1)C12CC(CN)(C1)C2 (stereo not shown) [Compound 201] here.
< 0.5 µM

Supply recorded IC50 for CCN(Cc1ccc(-n2ccc(NC(=O)N3CCN(C(=O)C(C)(C)N)CC3)nc2=O)cc1)C12CC(CN)(C1)C2 [Compound 175] here.
≥ 1 µM

Supply recorded IC50 for CC(Cc1ccc(-n2ccc(NC(=O)N3CCN(C(=O)CN)CC3)nc2=O)cc1)N1C[C@@H]2[C@@H](CN)[C@@H]2C1 (stereo partly shown) [Compound 227] here.
0.5 to 1 µM

Supply recorded IC50 for CC(CN1C[C@@H]2[C@@H](CN)[C@@H]2C1)Oc1ccc(-n2ccc(NC(=O)N3CCN(C(=O)C(C)(C)N)CC3)nc2=O)cc1 (stereo partly shown) [Compound 186] here.
< 0.5 µM

Supply recorded IC50 for CC(Cc1ccc(-n2ccc(NC(=O)N3CCN(C(=O)C(C)(C)N)CC3)nc2=O)cc1)N(CC(F)(F)F)C1CC2(CC(N)C2)C1 (stereo not shown) [Compound 195] here.
≥ 1 µM

Supply recorded IC50 for CC(C)(N)C(=O)N1CCN(C(=O)Nc2ccn(-c3ccc(CCCN4CCC5(CC4)CC(N)C5)cc3)c(=O)n2)CC1 [Compound 180] here.
≥ 1 µM

Supply recorded IC50 for CC(C)(N)C(=O)N1CCN(C(=O)Nc2ccn(-c3ccc(CNC45CC(N)(C4)C5)cc3)c(=O)n2)CC1 [Compound 171] here.
≥ 1 µM

Supply recorded IC50 for CN(Cc1ccc(-n2ccc(NC(=O)N3CCN(C(=O)C(C)(C)N)CC3)nc2=O)cc1)C12CC(CN)(C1)C2 [Compound 174] here.
≥ 1 µM

Supply recorded IC50 for CC(C)(N)C(=O)N1CCN(C(=O)Nc2ccn(-c3ccc(C[C@H](N)NN4C[C@@H]5[C@@H](N)[C@@H]5C4)cc3)c(=O)n2)CC1 [Compound 178] here.
≥ 1 µM

Supply recorded IC50 for CC(Cc1ccc(-n2ccc(NC(=O)N3CCN(C(=O)C(C)(C)N)CC3)nc2=O)cc1)N1C[C@@H]2[C@H](C1)[C@H]2C(C)(C)N (stereo partly shown) [Compound 205] here.
≥ 1 µM

Supply recorded IC50 for CC(C)(N)C(=O)N1CCN(C(=O)Nc2ccn(-c3ccc(CN4C[C@@H]5C(C(C)(C)N)[C@@H]5C4)cc3)c(=O)n2)CC1 (stereo partly shown) [Compound 206] here.
< 0.5 µM

Supply recorded IC50 for CC(Cc1ccc(-n2ccc(NC(=O)N3CCN(C(=O)C(C)(C)CN)CC3)nc2=O)cc1)N1C[C@@H]2[C@@H](CN)[C@@H]2C1 (stereo partly shown) [Compound 233] here.
≥ 1 µM

Supply recorded IC50 for NCCC1CN(C(=O)Nc2ccn(-c3ccc(CN4C[C@@H]5[C@@H](N)[C@@H]5C4)cc3)c(=O)n2)C1 [Compound 255] here.
0.5 to 1 µM

Supply recorded IC50 for CN(CCc1ccc(-n2ccc(NC(=O)N3CCN(C(=O)C(C)(C)N)CC3)nc2=O)cc1)C1CC2(CC(N)C2)C1 (stereo not shown) [Compound 193] here.
≥ 1 µM

Supply recorded IC50 for NCC1CCN(C(=O)Nc2ccn(-c3ccc(CN4C[C@@H]5[C@@H](N)[C@@H]5C4)cc3)c(=O)n2)CC1 [Compound 248] here.
≥ 1 µM

Supply recorded IC50 for CC(C)[C@H](N)C(=O)N1CCN(C(=O)Nc2ccn(-c3ccc(CC(C)N4C[C@@H]5[C@@H](CN)[C@@H]5C4)cc3)c(=O)n2)CC1 (stereo partly shown) [Compound 223] here.
< 0.5 µM
